Here, each record is paired with measured EC50 (read off the curve) data.
# assay_target: T1, cynomolgus CD73 expressed on a recombinant host cell line (cynomolgus)
# T1 construct: whole, on cells; also called cynoCD73
# assay_explanation: flow cytometry titration on a cynomolgus-CD73-expressing recombinant host cell line, median of fluorescence
readout: EC50 (read off the curve)

>>> experimental_value("antibody 3C12 (antibody, human IgG1, V domains shown, Produced as chimeric human IgG1 with heavy chain N297Q (Kabat EU numbering); RTVAAP)) VH: QIQLQQSGPELVKPGASVKVSCKASGYAFASYNMNWVKQSHGKSLDWIGYIDPYNGGSSYNLTFKGKATLTVDKSSTTAYMHLNSLTSEDSAVYYCARGYGNYKAWFAYWGQGTLVTVSA VL: DVVMTQTPKFLLVSAGDRVTITCKASQSVSNDVAWYQQKPGQSPKLLIYYASTRYTGVPDRFTGSGYGTDFTFTISTVQAEDLAVYFCQQDYSSLTFGAGTKLELKR")
"~0.4 µg/mL"
>>> experimental_value("antibody 6E1 (antibody, human IgG1, V domains shown, Produced as chimeric human IgG1 with heavy chain N297Q (Kabat EU numbering)) VH: EFQLQQSGPELVKPGASVKVSCKASGYAFTSYNMYWVKQSHGKRLEWIGYIDPYNGGSSYNQKFKGKATLTVDKSSSTAYMHLNNLTSEDSAVYYCARGYNNYKAWFAYWGQGTLVTVSA VL: SIVMTQTPKFLLVSAGDRVTITCKASQSVTNDVAWYQQKPGQSPKLLIYYASNRYTGVPDRFTGSGYGTDFTFTISTMQAEDLAVYFCQQDYSSLTFGAGTKLELK")
"~0.4 µg/mL"
>>> experimental_value("antibody 11E1 (antibody, human IgG1, V domains shown, Produced as chimeric human IgG1 with heavy chain N297Q (Kabat EU numbering); also called 1E11) VH: EIQLQQSGPELVKPGASVKVSCKASGYAFTSYNMYWVKQSHGKSLEWIGYIDPYNGGTSYNQKFKGKATLTVDKSSSTAYMHLNSLTSEDSAVYYCARGYGNYKAWFAYWGQGTLVTVSA VL: DAVMTQTPKFLLVSAGDRVTITCKASQSVTNDVAWYQQKPGQSPKLLIYYASNRYTGVPDRFTGSGYGTDFTFTISTVQAEDLAVYFCQQDYSSLTFGAGTKLELK")
"~0.4 µg/mL"
